molecular target: α-Glucosidase from Saccharomyces cervisiae; assay type: biochemical; conditions: in vitro; phosphate buffer pH 6.8, 37° C., substrate 0.7 mM, absorbance at 400 nm; read-out: α-Glucosidase Inhibition (IC50 in μM)
Assay Readout: IC50 (µM)
# number only, unit µM dropped from output

# annotated cases, reported IC50 shown
{"Compound": "Cc1cccc(C(CC(=O)c2ccccc2)c2c[nH]c3ccccc23)c1 (stereo not drawn)", "Tested System": "α-Glucosidase from Saccharomyces cervisiae", "Assay Readout": "IC50", "Meas Value": 26.3}
{"Compound": "Cc1cc(C)c([C@H](CC(=O)c2ccc3ccccc3c2)c2c[nH]c3ccccc23)c(C)c1", "Tested System": "α-Glucosidase from Saccharomyces cervisiae", "Assay Readout": "IC50", "Meas Value": 15.1}
{"Compound": "O=C(CC(c1ccc(Br)cc1)c1c[nH]c2ccccc12)c1ccccc1 (stereo not drawn)", "Tested System": "α-Glucosidase from Saccharomyces cervisiae", "Assay Readout": "IC50", "Meas Value": 24.9}
{"Compound": "O=C(C[C@@H](c1ccccc1)c1c[nH]c2ccccc12)c1ccc2ccccc2c1", "Tested System": "α-Glucosidase from Saccharomyces cervisiae", "Assay Readout": "IC50", "Meas Value": 43.9}

Which IC50 value is on record for Cc1cc(C)c([C@H](CC(=O)c2ccccc2)c2c[nH]c3ccccc23)c(C)c1 ?
25.2

Could you do the same for O=C(CC(c1cccc(Br)c1)c1c[nH]c2ccccc12)c1ccccc1 (stereo not drawn) , please?
33.2

Could you do the same for O=C(C[C@@H](c1ccccc1)c1c[nH]c2ccccc12)c1ccccc1 , please?
43.3

Could you do the same for O=C(CC(c1cccc([N+](=O)[O-])c1)c1c[nH]c2ccccc12)c1ccccc1 (stereo not drawn) , please?
34.6

Could you do the same for Cc1ccc([C@H](CC(=O)c2ccc3ccccc3c2)c2c[nH]c3ccccc23)cc1 , please?
18.1

Could you do the same for O=C(C[C@@H](c1cccs1)c1c[nH]c2ccccc12)c1ccccc1 , please?
21.8

Could you do the same for O=C(CC(c1cccs1)c1c[nH]c2ccccc12)c1ccc2ccccc2c1 (stereo not drawn) , please?
11.8

Could you do the same for Cc1ccc([C@H](CC(=O)c2ccccc2)c2c[nH]c3ccccc23)cc1 , please?
24

Could you do the same for O=C(C[C@@H](c1ccc(Cl)cc1)c1c[nH]c2ccccc12)c1ccc2ccccc2c1 , please?
17.6

Could you do the same for COc1ccc([C@H](CC(=O)c2ccccc2)c2c[nH]c3ccccc23)cc1 , please?
27.1

Could you do the same for COc1ccc([C@H](CC(=O)c2ccc3ccccc3c2)c2c[nH]c3ccccc23)cc1 , please?
15.2

Could you do the same for O=C(CC(c1c(Cl)cccc1Cl)c1c[nH]c2ccccc12)c1ccccc1 (stereo not drawn) , please?
4.3

Could you do the same for O=C(C[C@@H](c1ccc(Cl)cc1)c1c[nH]c2ccccc12)c1ccccc1 , please?
37.9

Could you do the same for O=C(CC(c1ccc(Cl)cc1Cl)c1c[nH]c2ccccc12)c1ccccc1 (stereo not drawn) , please?
15.6
